Give measured hERG current change (%, negative = inhibition) at 10uM for each item. Keep answers brief.
MEASURED_ON: human ether-à-go-go-related gene (hERG) potassium channel (human, UniProt Q12809)
Sequence (Q12809 whole entry, looked up): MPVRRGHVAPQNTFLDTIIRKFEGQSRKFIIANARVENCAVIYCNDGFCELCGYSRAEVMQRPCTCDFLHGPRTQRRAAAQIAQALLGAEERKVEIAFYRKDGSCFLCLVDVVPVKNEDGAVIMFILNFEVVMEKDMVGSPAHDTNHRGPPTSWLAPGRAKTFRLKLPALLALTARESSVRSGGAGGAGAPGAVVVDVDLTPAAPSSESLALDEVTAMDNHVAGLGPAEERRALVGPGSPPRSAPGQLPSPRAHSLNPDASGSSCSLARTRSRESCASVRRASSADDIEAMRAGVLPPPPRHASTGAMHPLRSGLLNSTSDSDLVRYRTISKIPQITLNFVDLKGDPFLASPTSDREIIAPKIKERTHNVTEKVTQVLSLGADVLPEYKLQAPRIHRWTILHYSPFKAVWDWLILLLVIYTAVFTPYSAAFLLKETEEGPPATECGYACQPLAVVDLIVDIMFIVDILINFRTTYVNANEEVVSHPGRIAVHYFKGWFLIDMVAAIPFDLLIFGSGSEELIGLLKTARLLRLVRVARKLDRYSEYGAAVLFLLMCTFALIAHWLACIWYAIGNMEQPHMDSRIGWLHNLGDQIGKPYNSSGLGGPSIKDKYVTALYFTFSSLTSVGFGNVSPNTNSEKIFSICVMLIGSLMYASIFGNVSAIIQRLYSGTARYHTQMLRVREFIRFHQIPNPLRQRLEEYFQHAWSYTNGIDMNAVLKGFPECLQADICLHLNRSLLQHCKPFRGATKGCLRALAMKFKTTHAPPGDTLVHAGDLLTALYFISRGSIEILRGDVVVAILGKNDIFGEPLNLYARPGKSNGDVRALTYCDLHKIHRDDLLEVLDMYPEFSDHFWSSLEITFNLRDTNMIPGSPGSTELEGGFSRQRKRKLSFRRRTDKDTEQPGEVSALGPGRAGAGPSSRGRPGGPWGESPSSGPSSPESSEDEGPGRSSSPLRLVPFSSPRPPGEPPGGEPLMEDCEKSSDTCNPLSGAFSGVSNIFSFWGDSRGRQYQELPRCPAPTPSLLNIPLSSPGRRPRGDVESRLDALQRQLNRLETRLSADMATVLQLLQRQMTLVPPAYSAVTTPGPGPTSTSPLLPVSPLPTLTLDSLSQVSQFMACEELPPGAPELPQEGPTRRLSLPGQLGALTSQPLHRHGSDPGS
EXPERIMENT_NOTES: primary screen, population patch clamp on CHO cells stably expressing hERG; higher = less effect of the substance;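 further: peak tail current of the secondary pulse compared with the same well before compound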
Screen size: about 310,000 compounds; about 14,000 (4.5%) showed an effect of 50% or more. The effect is printed as a negative number. The entries come from a sample that favours strong results as a whole.
I'd appreciate it if you included the unit after the number.

Q: Sample Cn1c(SCc2nc(-c3ccc(Cl)cc3)no2)nnc1-c1ccco1 — what was its hERG current change (%, negative = inhibition) at 10uM?
Result: -53.2%

Q: What about Cn1c(SCc2nc(-c3ccccc3)no2)nnc1-c1ccco1 ?
Result: -18.4%

Q: What about O=C(c1ccc(=O)[nH]c1)N1CCN(S(=O)(=O)c2cc(C(F)(F)F)ccc2Cl)CC1 ?
Result: -13.4%

Q: What about Nc1nonc1-n1nnc(C(=O)N/N=C/c2ccc(OCc3ccccc3)cc2)c1CN1CCCCC1 ?
Result: 7.17%

Q: What about CN1C(=O)Cc2cc(S(=O)(=O)N3CCN(c4ccc(Cl)cc4)CC3)ccc21 ?
Result: -2.2%

Q: What about Cn1c(SCc2nc(-c3ccccc3)no2)nnc1-c1cccs1 ?
Result: -2.11%

Q: What about Cc1cccc(NC2=NC(C)(C)N=C(N)N2)c1C ?
Result: 16.5%

Q: What about CCc1ccc(NC(=O)c2ccccc2Br)cc1 ?
Result: -11.2%

Q: What about CCCn1c(=O)c2c(nc3n2CC(C)CN3Cc2ccccc2)n(C)c1=O (centres unmarked) ?
Result: -39.4%

Q: What about CCn1c(SCc2nc(-c3ccc(OC)c(OC)c3)no2)nnc1-c1cccs1 ?
Result: -40.1%

Q: What about CC(C)Oc1ccc(C(=O)Nc2ccc(N3CCCCC3)cc2)cc1 ?
Result: -2.32%

Q: What about COc1ccc(NC(=O)C2CCN(S(=O)(=O)c3ccc4[nH]c(=O)oc4c3)CC2)c(OC)c1 ?
Result: 3.47%

Q: What about CCn1c(SCc2nc(-c3ccccc3)no2)nnc1-c1ccco1 ?
Result: -36.3%

Q: What about CN(C)/C=N/c1ncn(-c2ncc(C(F)(F)F)cc2Cl)n1 ?
Result: 17.5%

----------
MEASURED_ON: human ether-à-go-go-related gene (hERG) potassium channel (human, UniProt Q12809)
EXPERIMENT_NOTES: primary screen, population patch clamp on CHO cells stably expressing hERG; higher = less effect of the substance
The campaign covered roughly 310,000 compounds. About 14,000 (4.5%) showed an effect of 50% or more. Effects have a minus sign here. The list comes from a sample in which strong results are over-represented; it also holds close analogues and randomly drawn compounds.
Answer class 0 if hERG current change (%, negative = inhibition) at 10uM is under -10%, and class 1 if it is -10% or more.

Q: Hi, just wondering whether Cc1cnccc1CN(C)C(=O)CC1C(=O)NCCN1CC1CCCCC1 (centres unmarked) shows hERG current change (%, negative = inhibition) at 10uM of -10% or higher.
Result: class 1

Q: What about O=C(CN1CCN(C(=O)c2cccc(S(=O)(=O)N3CCCC3)c2)CC1)Nc1ccccc1Cl ?
Result: class 0

Q: What about O=[N+]([O-])c1ccc(C(=Nc2cccc3ccccc23)N2CCOCC2)cc1 ?
Result: class 0

Q: What about O=C(CN1CCN(C(=O)c2cccc(S(=O)(=O)N3CCCC3)c2)CC1)Nc1ccc(F)cc1 ?
Result: class 0

Q: What about COc1ccc(OC)c(CCNC(=O)CC2(CC3=NS(=O)(=O)c4ccccc4N3)CCCC2)c1 ?
Result: class 0

----------
MEASURED_ON: human ether-à-go-go-related gene (hERG) potassium channel (human)
EXPERIMENT_NOTES: primary screen, population patch clamp on CHO cells stably expressing hERG; higher = less effect of the substance
The whole screen tested about 310,000 compounds, of which about 14,000 (4.5%) showed an effect of 50% or more. The effect is printed as a negative number. This is one part of a sample in which strong results are shown more often than they occur.
Give measured hERG current change (%, negative = inhibition) at 10uM for each item. Keep answers brief.
Just the number in %, nothing appended.

Q: Sample O=C(COc1ccc(Cl)cc1)NCCS(=O)(=O)N1CCN(c2ccccc2F)CC1 — what was its hERG current change (%, negative = inhibition) at 10uM?
Result: 5.38

Q: What about CSc1ccccc1C(=O)Nc1nc2ccccc2[nH]1 ?
Result: 2.78

Q: What about CCOC(=O)c1c(C)[nH]c(C)c1S(=O)(=O)N(C)CC(=O)NCc1cccc(C)c1 ?
Result: -13.3

Q: What about CCC(N=c1cc(-c2ccc(OC)c(OC)c2)oc2ccc(C)cc12)C(=O)O (stereo not drawn) ?
Result: -20.7

Q: What about CCOCCCNC(=O)CCC(=O)NNc1nc2ccccc2c2nc(-c3ccccc3)nn12 ?
Result: -47.5

Q: What about COc1ccc(-c2cc(=NC(CC(C)C)C(=O)O)c3cc(C)ccc3o2)cc1 (stereo not drawn) ?
Result: -56.5

----------
Give measured hERG current change (%, negative = inhibition) at 10uM for each item. Keep answers brief.
MEASURED_ON: human ether-à-go-go-related gene (hERG) potassium channel (human)
EXPERIMENT_NOTES: primary screen, population patch clamp on CHO cells stably expressing hERG; higher = less effect of the substance
Procedure: Briefly, Chinese hamster ovary (CHO) cells stably expressing the hERG channel were dislodged from tissue culture flasks and dispensed into PPC plates. […] During the recording, background leak currents were estimated by a 100 ms step to -80 mV from an initial holding potential of -70 mV and subtracted from the subsequent current measurement. The campaign was conducted in two phases using slight differences in recording protocol. […]
Screen size: about 310,000 compounds; about 14,000 (4.5%) showed an effect of 50% or more. Effects have a minus sign here. This excerpt belongs to a sample that is enriched for strong results.
Just the number in %, nothing appended.

Q: Sample Cc1c(N(C)C(=O)C23CC4CC(CC(C4)C2)C3)c(=O)n(-c2ccccc2)n1C — what was its hERG current change (%, negative = inhibition) at 10uM?
Result: -1.09

Q: What about O=C(NC1CCCCC1)C(c1ccco1)N(C(=O)c1csnn1)c1cccc(Cl)c1 (centres unmarked) ?
Result: 4.93

Q: What about Cn1nc(-c2ccc(N3CCOCC3)c(NS(=O)(=O)c3ccc(Cl)cc3)c2)c2ccccc2c1=O ?
Result: -9.74

Q: What about Cl.O=C(c1ccc(F)cc1)C(CCCCCC(CN1CCOCC1)C(=O)c1ccc(F)cc1)CN1CCOCC1 (centres unmarked) ?
Result: -86.8

Q: What about O=C(O)c1nn(-c2cccc(Cl)c2)c(=O)cc1O ?
Result: 4.44

Q: What about CC(=O)Nc1ccc(N2C(=O)c3ccc(C(=O)Nc4nnc(SCc5ccc(F)cc5)s4)cc3C2=O)cc1 ?
Result: 13.4

Q: What about Cc1ccc(S(=O)(=O)Nc2cc(-c3nn(C)c(=O)c4ccccc34)ccc2N2CCOCC2)cc1 ?
Result: -57

Q: What about COc1nnc(-c2ccc(N3CCOCC3)c(NC(=O)c3ccco3)c2)c2ccccc12 ?
Result: -70

Q: What about COc1ccc(-c2c[n+]3c(n2-c2ccccc2)SCC3)cc1OC.[Br-] ?
Result: 4.92

Q: What about COc1ccc(S(N)(=O)=O)cc1C(=O)OCCCOC(=O)c1cc(S(N)(=O)=O)ccc1OC ?
Result: 4.29

Q: What about O=C1Nc2ccc([N+](=O)[O-])cc2OC1CCN1CCN(c2ccccc2)CC1 (centres unmarked) ?
Result: -47.4

Q: What about COc1ccc(N2CCN(CC(=O)NC(C)c3ccccc3)CC2)cc1 (centres unmarked) ?
Result: 20.6

Q: What about CC(NC(=O)CN1CCN(c2ccc(Cl)cc2)CC1)c1ccccc1 (centres unmarked) ?
Result: -42.7

Q: What about COCCCn1cc(C(=O)c2ccccc2OCC(=O)Nc2cccc(F)c2)cc(C#N)c1=O ?
Result: -35.9

Q: What about NC(=S)NNC(=O)/C(=C/c1ccc(Br)cc1)NC(=O)c1ccccc1 ?
Result: 40

Q: What about O=C(CN1CCN(c2ccccc2O)CC1)NC(c1ccccc1)c1ccccc1 ?
Result: -22.7

Q: What about CCc1ccc(C(C(=O)NC2CCCC2)N(C(=O)/C=C/C(=O)Nc2cc(C)on2)c2ccccc2C)cc1 (centres unmarked) ?
Result: 9.58

Q: What about O=[N+]([O-])c1ccc2c(c1)C(c1ccccc1)=NCCN2 ?
Result: -69.1

Q: What about COc1ccc(C(NC(=O)CN2CCCCCC2)c2ccc(OC)cc2)cc1 ?
Result: -65.9

Q: What about O=C(NC(=S)Nc1ccc(Oc2ccc(Cl)cc2)cc1)c1ccccc1 ?
Result: 10.7

Q: What about COc1nnc(-c2ccc(N3CCOCC3)c(NC(=O)c3ccc(C)cc3)c2)c2ccccc12 ?
Result: -68.9

Q: What about Nc1nc(SCc2ccc(Cl)cc2)ns1 ?
Result: -7

Q: What about O=[N+]([O-])c1ccc2[nH]nc(-c3ccccc3)c2c1 ?
Result: 9.26

Q: What about O=C(Cn1nc(C(=O)O)c2ccccc2c1=O)NCC1CCCO1 (centres unmarked) ?
Result: 20

Q: What about COc1nnc(-c2ccc(N3CCOCC3)c(NC(C)=O)c2)c2ccccc12 ?
Result: -1.4

Q: What about O=C(CNC(=O)/C(=C\c1ccc(Br)cc1)NC(=O)c1ccccc1)OCc1ccccc1 ?
Result: -59.9

Q: What about O=C1C2=C(C(c3ccccc3)=NCCN2)C(c2cccc([N+](=O)[O-])c2)N1c1ccccc1 (centres unmarked) ?
Result: -21.3

Q: What about COc1ccc(NS(=O)(=O)c2ccc(N3CCOCC3)c(NC(=O)c3ccco3)c2)cc1 ?
Result: 30.3

Q: What about CS(=O)(=O)N(CC(O)CON=C1c2ccccc2-c2ccccc21)c1ccc(F)cc1 (centres unmarked) ?
Result: 8.83

Q: What about CC(C)C(NC(=O)c1ccco1)C(=O)NCC(c1ccco1)N1CCCCC1 (centres unmarked) ?
Result: 20

Q: What about COC(=O)c1ccc(N2CCOCC2)c(NC(=O)c2ccco2)c1 ?
Result: 1.95

Q: What about COc1ccc(/C=N/NC(=O)CN2CCCC2)cc1 ?
Result: -14.8
